Reported IC50 values are given for each entry in this list.
# STUDY_SYSTEM: Prostaglandin E synthase (Homo sapiens)
# TEST_DESCRIPTION: Inhibition of mPGES1 in rhIL-1beta-stimulated human A549 cells assessed as PGE2 level treated for 18 hrs after 30 mins pre-incubation with rhIL-1beta by EIA method
# Format: cell-based
Give the value in µM but do not write µM after it.

Past entries and their recorded results:
| RECORD_SMILES | STUDY_SYSTEM | QUANTITY | RESULT |
| --- | --- | --- | --- |
| CCC(=O)NCc1cnc(C(F)F)c(C(=O)Nc2nc(C)c(-c3ccc(C(F)(F)F)cc3)[nH]2)c1 | Prostaglandin E synthase (Homo sapiens) | IC50 | 0.098 |
| CC(C)C(=O)NCc1ccc(C(F)F)c(C(=O)Nc2ncc[nH]2)c1 | Prostaglandin E synthase (Homo sapiens) | IC50 | 3.15 |

Request: I have this molecule here, CC(C)(C)C(=O)NCc1ccc(C(F)F)c(C(=O)Nc2ncc[nH]2)c1 , and I need its recorded IC50.
Result: 3.25

---

# STUDY_SYSTEM: Prostaglandin E synthase (Homo sapiens)
# TEST_DESCRIPTION: Inhibition of human microsomal PGES1 expressed in 293E cells by LC/MS/MS analysis
# Format: cell-based
pIC50: −log10 of the molar value.
// False strictly below 8 in pIC50; True otherwise

| RECORD_SMILES | CLASS_ASSIGNMENT |
| --- | --- |
| CC(C)C(=O)NCc1ccc(C(F)F)c(C(=O)Nc2ncc[nH]2)c1 | False |

Request: Does pIC50 meet or surpass 8 for CC(C)C(=O)NCc1cnc(C(F)F)c(C(=O)Nc2ncc(-c3ccc(Cl)cc3)[nH]2)c1 ?
Result: True

Request: Does pIC50 meet or surpass 8 for Cc1cc(Cl)c(C(=O)Nc2ncc[nH]2)cc1CNC(=O)C(C)C ?
Result: False

Request: Does pIC50 meet or surpass 8 for CC(C)C(=O)NCc1ccc(C(F)F)c(C(=O)Nc2ncc(-c3ccc(Cl)cc3)[nH]2)c1 ?
Result: True

Request: Does pIC50 meet or surpass 8 for CC[C@H](C)C(=O)NCc1ccc(C(F)F)c(C(=O)Nc2ncc[nH]2)c1 ?
Result: False

Request: Does pIC50 meet or surpass 8 for Cc1nc(NC(=O)c2cc(CNC(=O)C(C)C)cnc2C(F)F)[nH]c1-c1ccc(Cl)cc1 ?
Result: True

Request: Does pIC50 meet or surpass 8 for CC(C)(C)C(=O)NCc1ccc(C(F)F)c(C(=O)Nc2ncc[nH]2)c1 ?
Result: False

Request: Does pIC50 meet or surpass 8 for Cc1nc(NC(=O)c2cc(CNC(=O)C(C)C)cnc2C(F)F)[nH]c1-c1ccc(C(F)(F)F)cc1 ?
Result: True

---

# TEST_DESCRIPTION: Tmax in beagle dog at 2 mg/kg,po after 0.25 to 24 hrs by LC-MS/MS analysis
# Format: ADME, organism-based, Canis lupus familiaris
# COND: in vivo
QUANTITY: Tmax
Please give the number followed by its unit.

Request: I have this compound here, CC(C)C(=O)NCc1ccc(C(F)F)c(C(=O)Nc2ncc[nH]2)c1 , and I need its recorded Tmax.
Result: 15 min

---

# STUDY_SYSTEM: UniProt O14684
# Sequence (O14684 whole entry): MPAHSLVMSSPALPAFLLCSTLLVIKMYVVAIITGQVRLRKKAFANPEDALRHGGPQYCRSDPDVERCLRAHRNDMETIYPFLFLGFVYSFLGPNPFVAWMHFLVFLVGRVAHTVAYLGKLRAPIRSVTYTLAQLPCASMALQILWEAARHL
# TEST_DESCRIPTION: Inhibition of mPGES1 in LPS-induced human whole blood assessed as suppression of PGE2 response after 20 to 24 hrs by LC-MS/MS analysis
# Format: tissue-based
pIC50: −log10 of the molar value.
// 0 strictly below 6 in pIC50; 1 otherwise

Some solved entries appear below for comparison.
| RECORD_SMILES | CLASS_ASSIGNMENT |
| --- | --- |
| CC(C)C(=O)NCc1ccc(C(F)F)c(C(=O)Nc2ncc(-c3ccc(Cl)cc3)[nH]2)c1 | 1 |
| CC[C@H](C)C(=O)NCc1ccc(C(F)F)c(C(=O)Nc2ncc[nH]2)c1 | 0 |
| CC(C)C(=O)NCc1cnc(C(F)F)c(C(=O)Nc2ncc(-c3ccc(Cl)cc3)[nH]2)c1 | 1 |

Request: Does pIC50 meet or surpass 6 for Cc1ccc(CNC(=O)C(C)(C)C)cc1C(=O)Nc1ncc[nH]1 ?
Result: 0

Request: Does pIC50 meet or surpass 6 for CC(C)C(=O)NCc1cc(C(=O)Nc2ncc[nH]2)c(Cl)cc1F ?
Result: 0

Request: Does pIC50 meet or surpass 6 for CCC(=O)NCc1cnc(C(F)F)c(C(=O)Nc2nc(C)c(-c3ccc(C(F)(F)F)cc3)[nH]2)c1 ?
Result: 1

Request: Does pIC50 meet or surpass 6 for Cc1nc(NC(=O)c2cc(CNC(=O)C(C)C)cnc2C(F)F)[nH]c1-c1ccc(Cl)cc1 ?
Result: 1

Request: Does pIC50 meet or surpass 6 for CC(C)(C)C(=O)NCc1ccc(C(F)(F)F)c(C(=O)Nc2ncc[nH]2)c1 ?
Result: 0

Request: Does pIC50 meet or surpass 6 for CC(C)C(=O)NCc1ccc(C(F)F)c(C(=O)Nc2ncc[nH]2)c1 ?
Result: 0

Request: Does pIC50 meet or surpass 6 for Cc1cc(Cl)c(C(=O)Nc2ncc[nH]2)cc1CNC(=O)C(C)C ?
Result: 0

---

# TEST_DESCRIPTION: Volume of distribution at steady state in beagle dog at 2 mg/kg,po or 0.5 mg/kg, iv after 0.25 to 24 hrs by LC-MS/MS analysis
# Type: ADME, organism-based, Canis lupus familiaris
# COND: in vivo, read-out: Vdss
QUANTITY: Vd (L/kg)
Give the value in L/kg but do not write L/kg after it.

Request: I have this molecule here, CC(C)C(=O)NCc1ccc(C(F)F)c(C(=O)Nc2ncc[nH]2)c1 , and I need its recorded Vd.
Result: 2.27

---

Reported pIC50 values are given for each entry in this list.
# STUDY_SYSTEM: Prostaglandin E synthase (Homo sapiens, UniProt O14684)
# Sequence (O14684 whole entry): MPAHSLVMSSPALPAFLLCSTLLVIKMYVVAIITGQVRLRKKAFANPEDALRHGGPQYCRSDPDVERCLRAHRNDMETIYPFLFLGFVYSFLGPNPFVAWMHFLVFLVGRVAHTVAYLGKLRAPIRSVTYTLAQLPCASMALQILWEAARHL
# TEST_DESCRIPTION: Inhibition of human microsomal PGES1 expressed in 293E cells by LC/MS/MS analysis
# Format: cell-based
Expect pIC50 as a plain number equal to -log10 of the molar concentration.

Past entries and their recorded results:
| RECORD_SMILES | pIC50 |
| --- | --- |
| CC(C)C(=O)NCc1cc(C(=O)Nc2ncc[nH]2)c(Cl)cc1F | 5.44 |
| CC(C)(C)C(=O)NCc1ccc(C(F)(F)F)c(C(=O)Nc2ncc[nH]2)c1 | 5.97 |
| CCC(C)(C)C(=O)NCc1ccc(Cl)c(C(=O)Nc2ncc[nH]2)c1 | 6.41 |
| CC(=O)NCc1cnc(C(F)F)c(C(=O)Nc2nc(C)c(-c3ccc(C(F)(F)F)cc3)[nH]2)c1 | 7.13 |

Request: I have this compound here, Cc1ccc(CNC(=O)C(C)(C)C)cc1C(=O)Nc1ncc[nH]1 , and I need its recorded pIC50.
Result: 5.51

---

# STUDY_SYSTEM: Voltage-gated inwardly rectifying potassium channel KCNH2 (Homo sapiens)
# Sequence (Q12809 whole entry): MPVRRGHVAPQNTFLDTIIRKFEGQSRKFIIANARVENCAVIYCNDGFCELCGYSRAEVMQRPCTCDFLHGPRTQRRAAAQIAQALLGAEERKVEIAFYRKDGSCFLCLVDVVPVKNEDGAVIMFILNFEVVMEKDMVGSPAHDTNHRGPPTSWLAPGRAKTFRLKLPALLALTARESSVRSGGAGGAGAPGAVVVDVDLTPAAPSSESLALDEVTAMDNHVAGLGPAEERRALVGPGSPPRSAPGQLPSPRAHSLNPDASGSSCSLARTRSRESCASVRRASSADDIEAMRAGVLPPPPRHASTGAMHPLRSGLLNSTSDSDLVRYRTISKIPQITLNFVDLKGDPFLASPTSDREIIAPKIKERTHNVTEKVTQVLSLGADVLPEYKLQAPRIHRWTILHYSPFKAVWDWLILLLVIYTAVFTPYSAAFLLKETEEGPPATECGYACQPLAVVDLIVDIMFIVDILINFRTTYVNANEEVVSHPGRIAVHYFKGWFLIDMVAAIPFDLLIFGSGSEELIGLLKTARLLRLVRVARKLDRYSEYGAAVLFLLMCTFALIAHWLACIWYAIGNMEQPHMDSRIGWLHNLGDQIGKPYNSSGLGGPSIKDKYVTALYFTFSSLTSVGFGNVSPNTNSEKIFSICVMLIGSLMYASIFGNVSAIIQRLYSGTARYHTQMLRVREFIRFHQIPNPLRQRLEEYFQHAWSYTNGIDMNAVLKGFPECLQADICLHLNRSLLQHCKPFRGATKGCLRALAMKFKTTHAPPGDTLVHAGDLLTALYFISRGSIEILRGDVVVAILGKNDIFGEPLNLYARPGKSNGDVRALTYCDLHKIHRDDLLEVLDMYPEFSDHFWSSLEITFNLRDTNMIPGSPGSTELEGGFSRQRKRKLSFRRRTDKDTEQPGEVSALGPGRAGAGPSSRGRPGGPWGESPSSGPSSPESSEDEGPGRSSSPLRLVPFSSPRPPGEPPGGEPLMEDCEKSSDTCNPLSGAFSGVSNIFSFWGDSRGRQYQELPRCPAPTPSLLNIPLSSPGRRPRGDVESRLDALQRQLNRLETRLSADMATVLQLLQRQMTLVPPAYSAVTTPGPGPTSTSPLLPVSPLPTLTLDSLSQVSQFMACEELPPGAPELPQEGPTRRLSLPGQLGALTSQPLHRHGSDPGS
QUANTITY: pKi
Expect pKi as a plain number equal to -log10 of the molar concentration.

Request: Could you share what pKi was measured for Cc1nc(NC(=O)c2cc(CNC(=O)C(C)C)cnc2C(F)F)[nH]c1-c1ccc(C(F)(F)F)cc1 , tested on Voltage-gated inwardly rectifying potassium channel KCNH2 (Homo sapiens)?
Result: 4.38

---

# STUDY_SYSTEM: hERG (Homo sapiens, UniProt Q12809)
# Sequence (Q12809 whole entry): as above
# TEST_DESCRIPTION: Inhibition of human ERG at 10 uM
QUANTITY: inhibition at 10 µM

Request: Could you share what inhibition at 10 µM was measured for CC(C)(C)C(=O)NCc1ccc(Cl)c(C(=O)Nc2ncc[nH]2)c1 , tested on hERG (Homo sapiens, UniProt Q12809)?
Result: -4%

---

Reported bioavailability values are given for each entry in this list.
# TEST_DESCRIPTION: Oral bioavailability in beagle dog at 2 mg/kg after 0.25 to 24 hrs by LC-MS/MS analysis
# Type: ADME, organism-based, Canis lupus familiaris
# COND: in vivo
Please give the number followed by its unit.

Request: I have this molecule here, Cc1nc(NC(=O)c2cc(CNC(=O)C(C)C)cnc2C(F)F)[nH]c1-c1ccc(C(F)(F)F)cc1 , and I need its recorded bioavailability.
Result: 37%

Request: I have this molecule here, CC(C)C(=O)NCc1ccc(C(F)F)c(C(=O)Nc2ncc[nH]2)c1 , and I need its recorded bioavailability.
Result: 100%

Attribution: ChEMBL document CHEMBL3758174
